- Test system: HCC-2998 colon
- methodSummary: NCI-60 one-dose screen, 48 h (100 = growth as untreated, 0 = no growth, -100 = all killed)
- particulars: 10 µM unless noted
This is part of a sample that, as a whole, favours compounds with a hit. Of some 83,000 tested, about 20% had one in any assay.
Catalogue of growth values
observationType: growth (%)

>>> valueobserved("Nc1ccc(C2=NNC(=O)Cc3cc4c(cc32)OCCO4)cc1Cl")
61.9
>>> valueobserved("ClCCn1cnc2c(SCc3ccccc3Cl)ncnc21")
51.1
>>> valueobserved("Oc1c(C(Nc2ccccc2Br)c2ccccc2)ccc2cccnc12 (configuration not stated)")
30.1
>>> valueobserved("CC(C)CCSc1nc(-c2ccc(F)cc2)c(C#N)c(N2CCCCC2)n1")
102
>>> valueobserved("CCCCCCCCOC(=O)C(C)OC(=O)OCCOCCOC(=O)OC(C)C(=O)OCCCCCCCC (configuration not stated)")
100
>>> valueobserved("Cc1cccc(N=NC(=S)NNc2cccc(C)c2)c1")
104
>>> valueobserved("CCCCOC(=O)c1cc(O)c(O)c(O)c1")
92.5
>>> valueobserved("CCOC(=O)Cn1c(-c2nonc2NC(=O)c2ccccc2F)nc2ccccc21")
33.3
>>> valueobserved("COc1cc(Cl)cc(-c2nn(C(=O)NCCN3CCOCC3)cc2-c2ccncc2)c1")
88.6
>>> valueobserved("C/C(=N\\NC(=O)CSc1nc2ccccc2c(=O)n1CCc1ccc(S(N)(=O)=O)cc1)c1ccc(Br)cc1")
90.7
>>> valueobserved("COc1ccc(-c2cnnn2-c2nonc2-n2cccc2)cc1")
6.73
>>> valueobserved("c1cn2cc(-c3ccc4ncn(C5CCCCC5)c4c3)nc(-c3ccc4c(c3)ncn4C3CCCCC3)c2n1")
-93.4
>>> valueobserved("CCN(CC)CC(=O)Nc1c(C)ccc(N)c1C")
96.8
>>> valueobserved("c1csc(-c2cnc3nonc3n2)c1")
112
>>> valueobserved("O=C(CCl)Nc1ccc2c(c1)C(=O)c1ccccc1C2=O")
69
>>> valueobserved("Cc1ccc(C(CN(C)C)C(=O)c2ccccc2)cc1 (configuration not stated)")
101
>>> valueobserved("NNC(=O)CSc1nc2scc(-c3ccccc3)c2c(=O)n1-c1ccccc1")
84.2
